The origin of these recorded values is patent US20220356239A1.

Hi there, I'd appreciate the recorded IC50 of blocking IL-5-induced eosinophil adhesion for every entry that follows.
# TARGET OR TEST SYSTEM: T1, Human IL-5 amino acid sequence with his tag (rhIL-5-his) (human, UniProt P05113 20-134)
# T1 sequence: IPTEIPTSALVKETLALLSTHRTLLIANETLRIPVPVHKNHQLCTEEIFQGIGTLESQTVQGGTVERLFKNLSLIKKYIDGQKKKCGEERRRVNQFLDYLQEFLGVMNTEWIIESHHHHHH
# ASSAY SUMMARY: cell-based or functional assay
Form field: result (number plus unit)

h1706-009 (antibody, human IgG1, kappa, V domains shown) VH: EVQLVESGGGLVQPGGSLRLSCAASGFTFSHYYMAWVRQAPGKGLEWVSSINYEGNSAYYGDSVKGRFTISRDNSKNTLYLQMNSLRAEDTAVYYCATETLRESLDYWGQGTMVTVSS VL: DIQMTQSPSSVSASVGDRVTITCRASQDIGNYLSWYQQKPGKSPKLMIYSASNLEVGVPSRFSGSGSGTDYTLTISSLQPEDFATYFCLQHKQFPRTFGGGTKVEIKR has a reported IC50 of blocking IL-5-induced eosinophil adhesion of 4.3 ng/mL

h1705-008 (antibody, human IgG1, kappa, V domains shown) VH: EVQLVESGGGLVQPGGSLRLSCAASGFTFSHYYMAWVRQAPGKGLEWVTSISYEGDITYYGDSVKGRFTISRDNSKNTLYLQMNSLRAEDTATYYCASQTLRESFDYWGQGTLVTVSS VL: DIQMTQSPSSVSASVGDRVTITCRASQDIANYLSWYQQKPGKSPKLLIYGTSNLEVGVPSRFSGSRSGTDFTLTISSLQPEDFATYYCLQDKEFPRTFGGGTKVEIKR has a reported IC50 of blocking IL-5-induced eosinophil adhesion of 4.85 ng/mL

h1780-017 (antibody, human IgG1, kappa, V domains shown) VH: EVQLVQSGAEVKKPGASVKVSCKASGYTFTEYLIHWVRQAPGQGLEWIGYINPYSGGTVYNEKFKSRATLTVDKSISTAYMEFSRLRSDDTAVYYCARDGGYSDPLDYWGQGTMVTVSS VL: DTVLTQSPATLSLSPGERATLSCRASEGLTSYMHWYQQKPGQAPRLLIYKASNLASGVPARFSGSGSGTDFTLTISSLEPEDFATYFCQQNWNDPWTFGGGTKVEIKR has a reported IC50 of blocking IL-5-induced eosinophil adhesion of 21.2 ng/mL
